system: PPARg:RXRa IVT, anti-PPARg (NR concentration 270 nM, RXRa partner concentration 90 nM); assay: PBM binding z-score (relative to random genomic background probes); higher = stronger binding; sequences stand for … in GC…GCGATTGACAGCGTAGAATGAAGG
quantity-name: PBM binding z-score
Please state the value as a number alone, without comment.

Here's what some known entries look like.
>  <seq-text>
ATATGTAGGTTAAGGGCCATTCAGGTTGGTTCGC

>  <quantity-name>
PBM binding z-score

>  <measured-value>
6.88

$$$$
>  <seq-text>
CCTTACGGGTCACTCCAGGTTATGGCATCGGAGT

>  <quantity-name>
PBM binding z-score

>  <measured-value>
3.76

$$$$
>  <seq-text>
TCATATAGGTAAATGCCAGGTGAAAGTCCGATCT

>  <quantity-name>
PBM binding z-score

>  <measured-value>
2.79

$$$$

Query: Query (sequence): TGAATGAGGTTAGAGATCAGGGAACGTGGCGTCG ; field requested: PBM binding z-score
Reply: 2.14

Query: Which PBM binding z-score is reported for this sequence? CCAAGTAGGTTATGGGGCATTCAGGCAACGGTGA
Reply: 4.96

Query: Consider the sequence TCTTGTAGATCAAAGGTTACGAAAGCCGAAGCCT and give its measured PBM binding z-score.
Reply: 3.96

The measured values listed here are drawn from the supplement of paper PMC6555819.
